# method description: Equilibrium association (binding) constant interacting with Unilamellar Vesicles of electroneutral DMPC in PBSbuffer at pH 7.4 and 37 C
# Format: ADME
Classify: MET when K DMPC is strictly less than 800 M⁻¹; NOT MET when K DMPC is not.

>  <molecule>
CCC1(O)CC(=O)OCc2c1cc1n(c2=O)Cc2c-1nc1ccc(N)cc1c2[Si](C)(C)C (stereo not drawn)

>  <label value>
NOT MET

$$$$
>  <molecule>
CC[C@@]1(O)C(=O)OCc2c1cc1n(c2=O)Cc2cc3ccccc3nc2-1

>  <label value>
MET

$$$$
>  <molecule>
CC[C@@]1(O)C(=O)OCc2c1cc1n(c2=O)Cc2cc3c(CN(C)C)c(O)ccc3nc2-1

>  <label value>
MET

$$$$
>  <molecule>
CCC1(O)CC(=O)OCc2c1cc1n(c2=O)Cc2c-1nc1ccc(O)cc1c2[Si](C)(C)C(C)(C)C (stereo not drawn)

>  <label value>
NOT MET

$$$$
>  <molecule>
CCC1(O)CC(=O)OCc2c1cc1n(c2=O)Cc2c-1nc1ccccc1c2[Si](C)(C)C(C)(C)C (stereo not drawn)

>  <label value>
NOT MET

$$$$
>  <molecule>
CCC(O)(CC(=O)O)c1cc2n(c(=O)c1CO)Cc1c-2nc2ccc(O)cc2c1[Si](C)(C)C(C)(C)C (stereo not drawn)

>  <label value>
MET

$$$$
>  <molecule>
CCC1(O)CC(=O)OCc2c1cc1n(c2=O)Cc2c-1nc1ccc(N)cc1c2[Si](C)(C)C(C)(C)C (stereo not drawn)

>  <label value>
NOT MET

$$$$

====

remaining at 3 h, 1 µM values, listed per item
# method description: Stability parameter for the compound at a concentration of 1 uM in whole human blood after 3h
# Format: ADME
# experimental setup: read-out: Lactone
parameter: remaining at 3 h, 1 µM (%)

>  <molecule>
CCC1(O)CC(=O)OCc2c1cc1n(c2=O)Cc2c-1nc1ccccc1c2[Si](C)(C)C(C)(C)C (centres undefined)

>  <parameter>
remaining at 3 h, 1 µM

>  <measurement units>
%

>  <number>
86.6

$$$$
>  <molecule>
CCC1(O)CC(=O)OCc2c1cc1n(c2=O)Cc2c-1nc1ccc(N)cc1c2[Si](C)(C)C (centres undefined)

>  <parameter>
remaining at 3 h, 1 µM

>  <measurement units>
%

>  <number>
56.4

$$$$
>  <molecule>
CCC1(O)CC(=O)OCc2c1cc1n(c2=O)Cc2c-1nc1ccc(N)cc1c2[Si](C)(C)C(C)(C)C (centres undefined)

>  <parameter>
remaining at 3 h, 1 µM

>  <measurement units>
%

>  <number>
85.2

$$$$
>  <molecule>
CCC1(O)CC(=O)OCc2c1cc1n(c2=O)Cc2c-1nc1ccc(O)cc1c2[Si](C)(C)C(C)(C)C (centres undefined)

>  <parameter>
remaining at 3 h, 1 µM

>  <measurement units>
%

>  <number>
84.9

$$$$

====

# method description: Stability parameter for the compound at a concentration of 1 uM in plasma after 3h
# Assay type: ADME, cell-free
# experimental setup: read-out: Lactone
List of remaining at 3 h, 1 µM values.

>  <molecule>
CCC1(O)CC(=O)OCc2c1cc1n(c2=O)Cc2c-1nc1ccccc1c2[Si](C)(C)C(C)(C)C (centres undefined)

>  <remaining at 3 h, 1 µM, %>
85

$$$$
>  <molecule>
CCC1(O)CC(=O)OCc2c1cc1n(c2=O)Cc2c-1nc1ccc(N)cc1c2[Si](C)(C)C(C)(C)C (centres undefined)

>  <remaining at 3 h, 1 µM, %>
71.1

$$$$
>  <molecule>
CCC1(O)CC(=O)OCc2c1cc1n(c2=O)Cc2c-1nc1ccc(N)cc1c2[Si](C)(C)C (centres undefined)

>  <remaining at 3 h, 1 µM, %>
40.3

$$$$
>  <molecule>
CCC1(O)CC(=O)OCc2c1cc1n(c2=O)Cc2c-1nc1ccc(O)cc1c2[Si](C)(C)C(C)(C)C (centres undefined)

>  <remaining at 3 h, 1 µM, %>
61.5

$$$$

====

# method description: Stability parameter for the compound in human blood after 3h
# Type: ADME
# experimental setup: read-out: Lactone
// reported remaining at 3 h for each item listed

>  <compound>
CCC1(O)CC(=O)OCc2c1cc1n(c2=O)Cc2c-1nc1ccc(N)cc1c2[Si](C)(C)C (stereo not given)

>  <remaining at 3 h, %>
56

$$$$
>  <compound>
CCC1(O)CC(=O)OCc2c1cc1n(c2=O)Cc2c-1nc1ccc(O)cc1c2[Si](C)(C)C(C)(C)C (stereo not given)

>  <remaining at 3 h, %>
85

$$$$
>  <compound>
CCC1(O)CC(=O)OCc2c1cc1n(c2=O)Cc2c-1nc1ccc(N)cc1c2[Si](C)(C)C(C)(C)C (stereo not given)

>  <remaining at 3 h, %>
85

$$$$
>  <compound>
CC[C@@]1(O)C(=O)OCc2c1cc1n(c2=O)Cc2cc3ccccc3nc2-1

>  <remaining at 3 h, %>
7

$$$$
>  <compound>
CCC1(O)CC(=O)OCc2c1cc1n(c2=O)Cc2c-1nc1ccccc1c2[Si](C)(C)C(C)(C)C (stereo not given)

>  <remaining at 3 h, %>
87

$$$$

====

# method description: Stability parameter for the compound at a concentration of 1 uM in red blood cells(RBC) after 3h
# Type: ADME, cell-based
# experimental setup: read-out: Lactone

>  <compound>
CCC1(O)CC(=O)OCc2c1cc1n(c2=O)Cc2c-1nc1ccccc1c2[Si](C)(C)C(C)(C)C (centres undefined)

>  <measurement units>
%

>  <remaining at 3 h, 1 µM>
92

$$$$
>  <compound>
CCC1(O)CC(=O)OCc2c1cc1n(c2=O)Cc2c-1nc1ccc(N)cc1c2[Si](C)(C)C (centres undefined)

>  <measurement units>
%

>  <remaining at 3 h, 1 µM>
84.8

$$$$
>  <compound>
CCC1(O)CC(=O)OCc2c1cc1n(c2=O)Cc2c-1nc1ccc(O)cc1c2[Si](C)(C)C(C)(C)C (centres undefined)

>  <measurement units>
%

>  <remaining at 3 h, 1 µM>
88.5

$$$$
>  <compound>
CCC1(O)CC(=O)OCc2c1cc1n(c2=O)Cc2c-1nc1ccc(N)cc1c2[Si](C)(C)C(C)(C)C (centres undefined)

>  <measurement units>
%

>  <remaining at 3 h, 1 µM>
85.5

$$$$

====

Entries and their measured remaining at 3 h follow.
# method description: Stability parameter for the compound in mouse blood after 3h
# Assay type: ADME
# experimental setup: read-out: Lactone

>  <compound>
CCC1(O)CC(=O)OCc2c1cc1n(c2=O)Cc2c-1nc1ccc(O)cc1c2[Si](C)(C)C(C)(C)C (stereo not given)

>  <measurement units>
%

>  <remaining at 3 h>
70

$$$$
>  <compound>
CC[C@@]1(O)C(=O)OCc2c1cc1n(c2=O)Cc2cc3ccccc3nc2-1 [CAMPTOTHECIN]

>  <measurement units>
%

>  <remaining at 3 h>
20

$$$$
>  <compound>
CCC1(O)CC(=O)OCc2c1cc1n(c2=O)Cc2c-1nc1ccc(N)cc1c2[Si](C)(C)C (stereo not given)

>  <measurement units>
%

>  <remaining at 3 h>
72

$$$$
>  <compound>
CCC1(O)CC(=O)OCc2c1cc1n(c2=O)Cc2c-1nc1ccc(N)cc1c2[Si](C)(C)C(C)(C)C (stereo not given)

>  <measurement units>
%

>  <remaining at 3 h>
61

$$$$
>  <compound>
CCC1(O)CC(=O)OCc2c1cc1n(c2=O)Cc2c-1nc1ccccc1c2[Si](C)(C)C(C)(C)C (stereo not given)

>  <measurement units>
%

>  <remaining at 3 h>
80

$$$$

====

# method description: Stability parameter for the compound at a concentration of 1 uM in human serum albumin(HSA) after 3h
# Format: ADME
# experimental setup: read-out: Lactone
parameter: remaining at 3 h, 1 µM (%)

>  <compound>
CCC1(O)CC(=O)OCc2c1cc1n(c2=O)Cc2c-1nc1ccccc1c2[Si](C)(C)C(C)(C)C (centres undefined)

>  <parameter>
remaining at 3 h, 1 µM

>  <measurement units>
%

>  <number>
88.1

$$$$
>  <compound>
CCC1(O)CC(=O)OCc2c1cc1n(c2=O)Cc2c-1nc1ccc(N)cc1c2[Si](C)(C)C (centres undefined)

>  <parameter>
remaining at 3 h, 1 µM

>  <measurement units>
%

>  <number>
81.4

$$$$
>  <compound>
CCC1(O)CC(=O)OCc2c1cc1n(c2=O)Cc2c-1nc1ccc(O)cc1c2[Si](C)(C)C(C)(C)C (centres undefined)

>  <parameter>
remaining at 3 h, 1 µM

>  <measurement units>
%

>  <number>
82.9

$$$$
>  <compound>
CCC1(O)CC(=O)OCc2c1cc1n(c2=O)Cc2c-1nc1ccc(N)cc1c2[Si](C)(C)C(C)(C)C (centres undefined)

>  <parameter>
remaining at 3 h, 1 µM

>  <measurement units>
%

>  <number>
86.8

$$$$
